- Assay System: His-BIR2-3 (125-356, C202A/C213G, XIAP) (Homo sapiens, UniProt P98170, C202A/C213G)
- Construct: additions of His-BIR2-3 (125-356, C202A/C213G, XIAP), fluorescein labeled dimeric SMAC peptide
- Sequence (P98170 125-356 C202A/C213G): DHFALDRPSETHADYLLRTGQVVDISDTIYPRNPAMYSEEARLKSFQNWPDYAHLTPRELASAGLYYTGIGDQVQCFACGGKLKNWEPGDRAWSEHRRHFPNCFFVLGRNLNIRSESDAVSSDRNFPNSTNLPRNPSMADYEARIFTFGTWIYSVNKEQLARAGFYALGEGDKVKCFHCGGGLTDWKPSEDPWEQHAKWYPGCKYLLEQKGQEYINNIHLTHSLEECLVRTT
- Run Description: XIAP-BIR2-3 Dimeric SMAC Peptide Homogeneous Time Resolved Fluorescence (HTRF) Assay
- Test Conditions: XIAP BIR2-3, HTRF, Table 4
Quantity Name: IC50

{"Smiles String": "CN[C@@H](C)C(=O)N[C@H](C(=O)N1C[C@@H]2C[C@H]1C(=O)N[C@@H](Cc1ccc3ccccc3c1)C(=O)N[C@H](C(=O)O)Cc1ccc(cc1)-c1cn(nn1)[C@H]1C[C@@H](C(=O)N[C@@H](Cc3ccc4ccccc4c3)C(=O)N[C@H](C(=O)O)Cc3ccc(cc3)OCc3cn2nn3)N(C(=O)[C@@H](NC(=O)[C@H](C)NC)C(C)(C)C)C1)C(C)(C)C", "Reported Result": "1 to 10 nM"}
{"Smiles String": "CN[C@@H](C)C(=O)N[C@H](C(=O)N1C[C@@H]2C[C@H]1C(=O)N[C@@H](Cc1ccc3ccccc3c1)C(=O)N[C@H](C(=O)O)Cc1ccc(cc1)OCc1cn(nn1)[C@H]1C[C@@H](C(=O)N[C@@H](Cc3ccc4ccccc4c3)C(=O)N[C@H](C(=O)O)Cc3ccc(cc3)OCc3cn2nn3)N(C(=O)[C@@H](NC(=O)[C@H](C)NC)C23CC4CC(CC(O)(C4)C2)C3)C1)C12CC3CC(CC(O)(C3)C1)C2", "Reported Result": "1 to 10 nM"}
{"Smiles String": "CN[C@@H](C)C(=O)N[C@H](C(=O)N1CCN2C[C@H]1C(=O)N[C@@H](Cc1ccc3ccccc3c1)C(=O)N[C@H](C(=O)O)Cc1cn(nn1)CC(=O)N1CCN(C(=O)[C@@H](NC(=O)[C@H](C)NC)C(C)(C)C)[C@@H](C1)C(=O)N[C@@H](Cc1ccc3ccccc3c1)C(=O)N[C@H](C(=O)O)Cc1cn(nn1)CC2=O)C(C)(C)C", "Reported Result": "> 10 nM"}

* * *

- Assay System: His-BIR2-3 (125-356, C202A/C213G, XIAP) (Homo sapiens, UniProt P98170, C202A/C213G)
- Construct: additions of His-BIR2-3 (125-356, C202A/C213G, XIAP), fluorescein labeled dimeric SMAC peptide
- Run Description: XIAP-BIR2-3 Dimeric SMAC Peptide Homogeneous Time Resolved Fluorescence (HTRF) Assay
- Test Conditions: XIAP BIR2-3, HTRF, Table 4

{"Smiles String": "CN[C@@H](C)C(=O)N[C@H](C(=O)N1C[C@@H]2C[C@H]1C(=O)N[C@@H](Cc1ccc3ccccc3c1)C(=O)N[C@H](C(=O)O)Cc1ccc(cc1)OCc1cn(nn1)[C@H]1C[C@@H](C(=O)N[C@@H](Cc3ccc4ccccc4c3)C(=O)N[C@H](C(=O)O)Cc3ccc(cc3)OCc3cn2nn3)N(C(=O)[C@@H](NC(=O)[C@H](C)NC)C23CC4CC(CC(C4)C2)C3)C1)C12CC3CC(CC(C3)C1)C2", "IC50": "≤ 1 nM"}
{"Smiles String": "CN[C@@H](C)C(=O)N[C@H](C(=O)N1C[C@@H]2C[C@H]1C(=O)N[C@@H](Cc1ccc3ccccc3c1)C(=O)N[C@H](C(=O)O)Cc1ccc(cc1)OCc1cn(nn1)[C@H]1C[C@@H](C(=O)N[C@@H](Cc3ccc4ccccc4c3)C(=O)N[C@H](C(=O)NCc3cc(F)c(OC)c(F)c3)Cc3ccc(cc3)OCc3cn2nn3)N(C(=O)[C@@H](NC(=O)[C@H](C)NC)C(C)(C)C)C1)C(C)(C)C", "IC50": "> 10 nM"}
{"Smiles String": "CN[C@@H](C)C(=O)N[C@H](C(=O)N1C[C@@H]2C[C@H]1C(=O)N[C@@H](Cc1ccc3ccccc3c1)C(=O)N[C@H](C(=O)O)Cc1ccc(cc1)OCc1cn(nn1)[C@H]1C[C@@H](C(=O)N[C@@H](Cc3ccc4ccccc4c3)C(=O)N[C@H](c3n[nH]oc3=O)Cc3ccc(cc3)OCc3cn2nn3)N(C(=O)[C@@H](NC(=O)[C@H](C)NC)C(C)(C)C)C1)C(C)(C)C", "IC50": "1 to 10 nM"}

The measured values listed here are drawn from patent US20140309265A1.
